# target.or.test.system: human insulin receptor (HIR) (human, UniProt P06213-2 28-1370, limits assumed)
# Sequence (P06213 other isoform, or with tags, fused parts or gaps limits assumed): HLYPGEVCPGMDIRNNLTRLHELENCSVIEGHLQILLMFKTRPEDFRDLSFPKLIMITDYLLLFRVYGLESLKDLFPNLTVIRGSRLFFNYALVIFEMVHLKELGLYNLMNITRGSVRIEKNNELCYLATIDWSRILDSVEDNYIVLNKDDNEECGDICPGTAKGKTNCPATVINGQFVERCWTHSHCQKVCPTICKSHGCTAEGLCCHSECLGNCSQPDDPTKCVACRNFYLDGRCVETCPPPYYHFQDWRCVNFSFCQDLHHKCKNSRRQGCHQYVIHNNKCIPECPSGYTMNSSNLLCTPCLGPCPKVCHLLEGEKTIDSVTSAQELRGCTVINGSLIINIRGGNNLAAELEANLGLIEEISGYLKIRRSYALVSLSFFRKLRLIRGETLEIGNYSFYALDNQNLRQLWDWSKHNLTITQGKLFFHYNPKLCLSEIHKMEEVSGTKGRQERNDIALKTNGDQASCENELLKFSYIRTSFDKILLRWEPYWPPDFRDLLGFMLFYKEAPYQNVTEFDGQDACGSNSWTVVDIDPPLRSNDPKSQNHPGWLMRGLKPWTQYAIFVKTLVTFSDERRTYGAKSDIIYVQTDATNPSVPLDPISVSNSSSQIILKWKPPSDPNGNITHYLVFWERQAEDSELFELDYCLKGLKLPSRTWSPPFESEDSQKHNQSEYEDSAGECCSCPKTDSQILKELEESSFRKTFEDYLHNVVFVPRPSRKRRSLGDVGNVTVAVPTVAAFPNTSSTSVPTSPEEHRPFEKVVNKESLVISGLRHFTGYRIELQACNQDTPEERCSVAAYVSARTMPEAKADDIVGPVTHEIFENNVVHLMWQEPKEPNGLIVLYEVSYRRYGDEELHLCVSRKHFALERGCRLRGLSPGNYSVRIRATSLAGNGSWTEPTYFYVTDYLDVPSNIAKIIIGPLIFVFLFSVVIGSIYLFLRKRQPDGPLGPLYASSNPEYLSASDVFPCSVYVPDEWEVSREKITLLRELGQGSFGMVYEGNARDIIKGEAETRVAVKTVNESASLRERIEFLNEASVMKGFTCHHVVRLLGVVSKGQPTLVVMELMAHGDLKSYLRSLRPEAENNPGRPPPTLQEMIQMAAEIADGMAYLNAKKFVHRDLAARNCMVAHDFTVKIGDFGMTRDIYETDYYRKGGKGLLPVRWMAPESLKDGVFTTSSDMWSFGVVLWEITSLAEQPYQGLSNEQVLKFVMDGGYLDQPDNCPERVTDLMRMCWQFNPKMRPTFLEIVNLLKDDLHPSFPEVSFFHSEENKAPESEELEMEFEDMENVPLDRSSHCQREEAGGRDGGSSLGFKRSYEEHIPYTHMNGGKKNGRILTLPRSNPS
# test.summary: HIR binding assay (method not restated)
Consider the following binders; for each one, report its Kd.
# output: number + unit

# binder, Kd
measured = [
    ("MBP fusion 435 (H2C-3aa-H2C-3aa-H2C) (other, not shown: large carriers; small tags and cut ends, N-terminus of the given chain is fused to the C-terminus of MBP, which is not given, also called RB435) NNNNLGIEGRISEFIEGRAQPAMAFHENFYDWFVRQVSGGSFHENFYDWFVRQVSGGSFHENFYDWFVRQVSAAAGAPVPYPDPLEPRAA", "2000 nM"),
]

Please examine the following record next.
Problem: Query (binder): MBP fusion 463 (H2C-3aa-H2C) (other, not shown: large carriers; small tags and cut ends, N-terminus of the given chain is fused to the C-terminus of MBP, which is not given, also called RB463) NNNNLGIEGRISEFIEGRAQPAMAFHENFYDWFVRQVSGGSFHENFYDWFVRQVSAAAGAPVPYPDPLEPRAA ; field requested: Kd
Result: 960 nM
